Record form. Attribute: pKd. Fill in for each entry.
target.system: T1, PUF4 RNA-binding domain (Saccharomyces cerevisiae, UniProt P25339 537-888)
T1 sequence: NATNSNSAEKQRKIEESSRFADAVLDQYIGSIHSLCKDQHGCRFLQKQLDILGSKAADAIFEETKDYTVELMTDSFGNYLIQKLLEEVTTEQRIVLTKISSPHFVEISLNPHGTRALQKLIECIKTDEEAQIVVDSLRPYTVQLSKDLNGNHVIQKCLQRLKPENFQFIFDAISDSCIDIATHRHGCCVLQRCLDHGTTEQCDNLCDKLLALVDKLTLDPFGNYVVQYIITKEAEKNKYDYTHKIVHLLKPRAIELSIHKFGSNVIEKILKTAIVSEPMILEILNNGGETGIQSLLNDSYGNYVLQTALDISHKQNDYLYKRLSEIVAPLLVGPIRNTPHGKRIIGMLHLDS
test.method.notes: Mg; RNA-MaP; 20 mM Na-HEPES pH 7.4, 30 mM KOAc, 0.75 mM MgCl2, 0.1% Tween-20, 5% glycerol, 0.1 mg/mL BSA, 2 mM DTT; 25 C; 0.0125-409.6 nM protein
assay.conditions: tags: N-His6-TEV cleaved; C-SNAP kept, Cy3B-labelled; label: tethered on chip by stalled RNA polymerase
Numbers only, as −log10 of the molar value.

ACAAACAUUAUAUAUUACGACAAAC (ssRNA) [Id_ii_S3_P4E.3_K4.2_C4.2_[C-2A]_H4.2_A4.1_F4.1_T4.2_[G10C]_[T11G]] | 7.67

Proceed to the following item.
Q: Report measured pKd; entry is Ic_S4_P4E.1_K4.1_C4.1_H4.1_A4.1_[T5G]_[A6T]_[T7C]_F4.1_[T8C]_[A9T]_T4.1 (ssRNA) RNA: UUUGACAACUGAUCGUUCUUUCUUGUAGUCCUUUCUUUCUCGAUCAGUUGUCUUU
A: 6.71

src = paper PMC9352680
